Ref: the domain aggregation screens of Martell et al. (2025)

- procedure.text: soluble fraction after stress (log2 fold change); higher = more stays soluble; pooled small domains, quantitative proteomics
- applied.conditions: stress: 50 degC
Exercise: state measured soluble fraction (log2) for each of the sequences provided.
Numbers only.

# count of solved cases: 3
>>> observed_measurement("HMKPTVKKLLAALPELRSGQPLHLSVATRKLRDAGLLGKNASSPTLFRNYVAQFELIPENQPNAVRYR")
-0.551
>>> observed_measurement("HMAVLGIQPVFHRSTGQTVYKSSVNTAKGRVYLGLFPTLTEALEIKLKYMQEHGHTKGITNLTNKLKEL")
-1.17
>>> observed_measurement("HMAITLEVAKKHLEMWLEAESEVAINQSYTIGGKSFTRANLAEIRKQIEYWSNKVAELENLA")
0.0438

Prompt: Reported soluble fraction (log2) for HMESLGEKIKNIRISNNLKQSELADILHISEKTISSWENNRTTPDLNMIYKISNYFKKSFYYLISDDYI : what is it?
Completion: -1.02

----------
- procedure.text: soluble fraction after stress (log2 fold change); higher = more stays soluble; pooled small domains, quantitative proteomics
- applied.conditions: stress: 50 degC
Exercise: state measured soluble fraction (log2) for each of the sequences provided.
Give bare numbers.

# count of solved cases: 6
>>> observed_measurement("HMLSDAAAMESIAYEAIRQMEPDTYYIIGAGTTTRGIMEVLGLKNTLIGVDLIRNKELVANDLGGKELLSY")
0.0353
>>> observed_measurement("HMNDQLIYSDFIRQVQDGQITEVTISGLNIAGTRSDGSVFNTLRPYIEDPKLIDDLLSHNVRIQGAE")
-0.2
>>> observed_measurement("HMTVSADIIQKIIKTSTTDENIITIDSISNSISKLALSKITAEDIIEILEASSLVLRNSNGSWTVL")
-0.617
>>> observed_measurement("HMKASTRELLDFVLSQRGVSTASVAKALGISVQNASTRLKKLSNEGLIIRSEASSLTGGIEFLYS")
-0.799
>>> observed_measurement("HMDEFQLTPREQEILGLLVKGYTYKRIASELNLSYATVNRHVSNVYVKLRVHSVNEAVALAVRKGL")
-0.997
>>> observed_measurement("HMVFADRLRALRKKSGLTQDEFSKQTGIGRSAVGMYESGKREPNYTTLSKVARFYHVSTDYLLGRTDTP")
-1.04

Each sequence below has a reported value. Please supply its soluble fraction (log2).
1. HMDGYVPAERIASEVGVSARTITREMHGLEMTLMPYGIALLRRTGAGFMLAGTAKALADLRKHMTEDADTQ
2. HMLRISLAAARVNAEMTQEDVAREMHVSKNTVVNWEKGKSEPTISQSRELSKLYNMPLEYIFYL
3. HMDVIGLEAAKSAAVKDAGISSPTFTKATLDRDDGRSLYEIEFISGSTKYEYDIDALTGSVLSKKTRALS
4. HMRQSQEVSGGERYRRLTAYLDTHPFITRKEYSGITGLLKNKALNDLNLLVNKGYLEAMGRGSHKVYVRPM

Completion:
1: -0.00161; 2: -3.05; 3: -0.112; 4: -0.424

----------
- procedure.text: soluble fraction after stress (log2 fold change); higher = more stays soluble; pooled small domains, quantitative proteomics
- applied.conditions: stress: 50 degC
Exercise: state measured soluble fraction (log2) for each of the sequences provided.
One number for each entry.

>>> observed_measurement("HMSHISLGQRYKIEGYLQINLKRTQIAKEIGLPKKTVNQEIKRNSNPQTGIYKAEEAHQLYLDRMQKKRK")
-0.131
>>> observed_measurement("HMKEETYHYTVRYVTDGGDILASYEGKATKDSVFFPEVKTFDGYTAVRGEEPMFHLVSDHAVFQIVYQKNG")
-0.147
>>> observed_measurement("HMLQLDATDRALIVATQGGLPLVPRPYQVVGEQLGISGEEVVARLRALLDAGVIRRIGAVPN")
-0.283
>>> observed_measurement("HMTAGTTALNKLQQGMSTQQVQAALGTPSDRTVKESGVELWKYYYPYENMLLYLKFRDGHLVSFGTN")
-0.0161
>>> observed_measurement("HMNTGIPHQEVIKKLYSFAEGGDWKGLKEELNRIKEYTLFYNSVKELADSFEINRLIEKLKTYIF")
0.0146
>>> observed_measurement("HMELNESVLKALYEKFREMSGSKGFITEDEVIIQLEKENPDITPDQQAEIFKYLYDTPLQIY")
-0.127

Could you now consider this next sequence?
Prompt: Reported soluble fraction (log2) for HMAQMDDPEMVLHIYNKMIQQRLFDTAVGYSYLKDLQEYLQSIPFIRKEDIFPIPVQHPQVEESLRKAK : what is it?
Completion: -0.367
